Measured pKi (UniProt:Q42656)
Sequence (Q42656 16-378): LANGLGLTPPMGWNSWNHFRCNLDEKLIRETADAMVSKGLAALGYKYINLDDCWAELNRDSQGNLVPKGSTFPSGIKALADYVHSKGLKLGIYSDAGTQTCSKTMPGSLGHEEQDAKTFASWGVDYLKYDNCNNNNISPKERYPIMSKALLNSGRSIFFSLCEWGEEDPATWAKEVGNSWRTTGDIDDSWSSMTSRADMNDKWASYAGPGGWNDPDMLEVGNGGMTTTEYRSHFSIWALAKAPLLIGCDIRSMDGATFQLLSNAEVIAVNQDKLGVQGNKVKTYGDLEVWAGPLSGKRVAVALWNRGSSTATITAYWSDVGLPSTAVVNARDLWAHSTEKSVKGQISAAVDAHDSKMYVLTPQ
// pKi is dimensionless: -log10 of concentration (M)

Examples from the recorded data:
{"Molecule": "CCCCCCCCN=C1SCC2C(O)C(O)C(O)CN12 (stereo not drawn)", "Assay target": "UniProt:Q42656", "pKi": 3.30}
{"Molecule": "CCCCNC(=S)N1C[C@H](O)[C@@H](O)[C@H](O)[C@H]1CO", "Assay target": "UniProt:Q42656", "pKi": 3.07}
{"Molecule": "OC[C@@H]1[C@@H](O)[C@H](O)[C@@H](O)CN1C(=S)Nc1ccccc1", "Assay target": "UniProt:Q42656", "pKi": 3.91}
{"Molecule": "OC[C@H]1[C@@H](O)[C@H](O)[C@@H](O)CN1C(=S)Nc1ccccc1", "Assay target": "UniProt:Q42656", "pKi": 4.11}
{"Molecule": "CCCCCCCCNC(=S)N1C[C@H](O)[C@@H](O)[C@H](O)[C@@H]1CO", "Assay target": "UniProt:Q42656", "pKi": 4.22}

Let's switch to this molecule now.
Give the reported value of pKi for this record: OC1CN2C(=Nc3ccccc3)SCC2C(O)C1O (stereo not drawn) 3.11
